B1: GLT8D2 (parent)
chain: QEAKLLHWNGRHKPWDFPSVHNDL

# Variants of: B1
# assay: protein stability index of a GFP-peptide fusion (GPS, HEK-293T) (PSI 1-6); higher = more stable;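 further: lentivirally expressed fusions sorted by FACS into six bins by GFP to DsRed ratio, PSI derived from sequencing read proportions per bin multiplied by bin number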
# setup conditions: c terminus: a fixed tail appended
Assign Met whenever protein stability index does not fall below 3; assign Not met whenever it does.

V20F = Not met

## Input Given R11M , state whether its protein stability index is at least 3.
## Output Met

## Input Quick check, protein stability index >= 3? W8M
## Output Not met
